target: BRG-1 (Homo sapiens, UniProt P51532); assay: ATPase catalytic activity assay (ADP-Glo), BRG-1
Sequence (P51532 whole entry): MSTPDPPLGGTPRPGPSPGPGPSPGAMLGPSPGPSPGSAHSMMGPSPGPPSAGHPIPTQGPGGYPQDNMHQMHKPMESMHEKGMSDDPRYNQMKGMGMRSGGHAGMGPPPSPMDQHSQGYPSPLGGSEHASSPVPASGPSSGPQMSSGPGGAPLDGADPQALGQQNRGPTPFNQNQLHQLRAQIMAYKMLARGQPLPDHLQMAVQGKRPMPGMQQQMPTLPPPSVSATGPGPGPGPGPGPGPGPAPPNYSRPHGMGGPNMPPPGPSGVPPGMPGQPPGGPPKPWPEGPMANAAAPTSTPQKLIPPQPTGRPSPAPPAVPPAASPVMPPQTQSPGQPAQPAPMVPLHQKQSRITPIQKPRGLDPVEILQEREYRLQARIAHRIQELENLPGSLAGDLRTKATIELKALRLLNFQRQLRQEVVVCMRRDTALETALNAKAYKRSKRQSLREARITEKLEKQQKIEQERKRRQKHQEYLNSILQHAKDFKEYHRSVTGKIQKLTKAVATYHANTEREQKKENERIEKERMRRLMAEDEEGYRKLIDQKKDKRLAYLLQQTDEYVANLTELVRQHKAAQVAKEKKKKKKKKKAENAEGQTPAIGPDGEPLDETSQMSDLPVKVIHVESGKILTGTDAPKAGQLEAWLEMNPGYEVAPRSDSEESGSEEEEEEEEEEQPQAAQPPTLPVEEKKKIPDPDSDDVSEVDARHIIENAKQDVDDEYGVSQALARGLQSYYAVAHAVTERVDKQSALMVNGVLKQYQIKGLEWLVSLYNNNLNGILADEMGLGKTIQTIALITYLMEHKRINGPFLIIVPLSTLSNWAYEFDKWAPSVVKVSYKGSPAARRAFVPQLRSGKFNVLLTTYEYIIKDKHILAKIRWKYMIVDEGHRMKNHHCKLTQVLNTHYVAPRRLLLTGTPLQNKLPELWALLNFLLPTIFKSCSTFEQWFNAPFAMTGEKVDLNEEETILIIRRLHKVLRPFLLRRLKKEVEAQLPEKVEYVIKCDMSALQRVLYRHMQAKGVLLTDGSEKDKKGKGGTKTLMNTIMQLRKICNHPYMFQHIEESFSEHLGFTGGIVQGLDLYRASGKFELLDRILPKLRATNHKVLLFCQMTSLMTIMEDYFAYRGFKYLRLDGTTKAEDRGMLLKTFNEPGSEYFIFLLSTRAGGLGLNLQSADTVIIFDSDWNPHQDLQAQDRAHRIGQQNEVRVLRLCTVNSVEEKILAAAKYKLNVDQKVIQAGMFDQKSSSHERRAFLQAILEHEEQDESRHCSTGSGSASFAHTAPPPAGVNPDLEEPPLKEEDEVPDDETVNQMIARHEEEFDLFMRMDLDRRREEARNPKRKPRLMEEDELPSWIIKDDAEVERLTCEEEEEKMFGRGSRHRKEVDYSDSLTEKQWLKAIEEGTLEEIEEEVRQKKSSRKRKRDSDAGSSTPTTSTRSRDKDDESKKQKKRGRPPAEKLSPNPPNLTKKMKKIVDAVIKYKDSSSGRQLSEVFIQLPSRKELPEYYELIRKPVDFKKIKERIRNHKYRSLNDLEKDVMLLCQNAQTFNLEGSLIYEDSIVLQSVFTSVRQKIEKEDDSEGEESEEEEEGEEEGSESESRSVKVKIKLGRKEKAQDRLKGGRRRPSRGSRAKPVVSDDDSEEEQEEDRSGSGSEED
property: IC50

compound	IC50
C[C@@]1(C#N)COCc2ccc(C(=O)NCc3cc4cc(-c5ccnc(N6CCC6)c5F)cnc4cn3)cc21 [Compound 294]	100 to 500 nM
C[C@@]1(C#N)COCc2ccc(C(=O)NCc3cc(OCc4cccc(C#N)c4)ccn3)cc21 [Compound 65]	> 1000 nM
C[C@@]1(F)COCc2ncc(C(=O)NCc3cc4nc(-c5ccnc(N6CCC6)c5F)ccc4cn3)cc21 [Compound 296]	100 to 500 nM

Let's switch to this compound now.
Param item = COc1nn(CC(F)F)cc1-c1ccc2cnc(CNC(=O)c3ccc4c(c3)[C@](C)(C#N)COC4)cc2n1 [Compound 202] ; retrieve measured IC50.
500 to 1000 nM
